IC50 values for the compounds below.
# Test system: P. falciparum (chloroquine-resistant)
# protocol: P. falciparum culture growth by [3H]-hypoxanthine uptake, drugs singly or in combination, with isobolographic analysis
# Assay type: cell-based, Plasmodium falciparum
# conditionSummary: Plasmodium falciparum, 48 hrs, starting parasitemia 2-3%
# Protocol: Appropriate solvent controls were used. Parasite growth was measured by staining the slides with Giemsa as well as [α3H]-hypoxanthine uptake. In the latter case, the cultured cells were lysed with water and the parasites collected by filtration, washed and radioactivity measured. […] Parasite count was measured in blood before and drug therapy at different time intervals using Giemsa to stain the slides. […]

- smilesRecord: "COc1cc(/C=C/C(=O)CC(=O)/C=C/c2ccc(O)c(OC)c2)ccc1O"
  targetOfAssay: "P. falciparum (chloroquine-resistant)"
  result: "15 to 17 µM"

Q: Report IC50 on P. falciparum (chloroquine-resistant) for this entry: `C[C@@H]1CC[C@H]2[C@@H](C)C(=O)O[C@@H]3O[C@@]4(C)CC[C@@H]1[C@]32OO4`
A: 0.045 to 0.055 µM

Entry source: patent US7776911B2
